Data provenance: paper PMC3409205

Molecular target: TipαN25 H60A (Helicobacter pylori 26695, UniProt O25318 25-192, H60A)
Experiment: SPR; pH 7.0; ka 2.9 M-1 s-1, kd 1.75E-04 s-1; ITC: 50 mM citric acid/Na citrate pH 5.0, 150 mM NaCl, 25 °C; SPR: 50 mM Hepes pH 7.0, 150 mM NaCl, 0.005% Tween20, 25 °C
Conditions: protein: recombinant; tags: C-terminal LE-6xHis; chain copies: 2; label: 5' biotin; called ssDNA by authors; self-complementary repeat
value-type: Kd (µM)
One number for each entry, in µM.

Prompt line: Give me measured Kd, please, for this binder: GCGCGCGCGCGCGCGCGCGC (ssDNA) [5'-biotin (dGdC)10, 20 nt]
Response line: 60.3
